Listed below: %Inh values for each entry.
system: FGR; details: concentration: 1 μM,replicates: in singlicate; n = 1;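 note: KINOMEscan kinase panel screen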
readout-kind: %Inh (%)

[[record]]
compound = "CN1CCN(CCCNc2nccc(-c3c(-c4ccc(F)cc4)nn4cc(C(N)=O)ccc34)n2)CC1 [GW622475]"
target_or_test_system = "FGR"
readout_kind = "%Inh"
value_measured = 0

[[record]]
compound = "COc1cc2nccc(Nc3ccc(Oc4ccccc4)cc3)c2cc1OC.Cl [GI261656]"
target_or_test_system = "FGR"
readout_kind = "%Inh"
value_measured = 95.5

[[record]]
compound = "Cn1ccc2ncnc(Oc3ccc(NC(=O)Nc4cccc(C(F)(F)F)c4)c(Cl)c3)c21"
target_or_test_system = "FGR"
readout_kind = "%Inh"
value_measured = 5

[[record]]
compound = "Cc1nnc(-c2ccc3occ(-c4ccc(S(C)=O)cc4)c3n2)o1 (stereo not drawn)"
target_or_test_system = "FGR"
readout_kind = "%Inh"
value_measured = 25

[[record]]
compound = "CN1CCN(CCNc2nc3cc(Oc4ccc(NC(=O)Nc5cc(C(F)(F)F)ccc5F)cc4)ccc3[nH]2)CC1.Cl.Cl [GW768504]"
target_or_test_system = "FGR"
readout_kind = "%Inh"
value_measured = 0

[[record]]
compound = "CC(=O)Nc1ccc(-c2cc3ncnc(SCC(=O)O)c3s2)cc1"
target_or_test_system = "FGR"
readout_kind = "%Inh"
value_measured = 21

[[record]]
compound = "COc1cccc(C2=C(Nc3cccc(Cl)c3)C(=O)NC2=O)c1 [SB-341556]"
target_or_test_system = "FGR"
readout_kind = "%Inh"
value_measured = 5

[[record]]
compound = "C[C@@H](Oc1cc(-n2cnc3ccc(-c4ccncc4)cc32)sc1C(N)=O)c1ccccc1Cl [GSK483724]"
target_or_test_system = "FGR"
readout_kind = "%Inh"
value_measured = 27

[[record]]
compound = "C[C@@H]1CNc2c(sc3ccc4nc(-c5ccncc5)ccc4c23)C(=O)N1"
target_or_test_system = "FGR"
readout_kind = "%Inh"
value_measured = 40

[[record]]
compound = "C[C@@H]1CNc2c(sc3ccc4nc(-c5ccc(O)cc5)ccc4c23)C(=O)N1"
target_or_test_system = "FGR"
readout_kind = "%Inh"
value_measured = 0

[[record]]
compound = "O=c1[nH]cc(-c2ccc(O)cc2)c2sc(-c3ccncc3)cc12 [GSK1033723]"
target_or_test_system = "FGR"
readout_kind = "%Inh"
value_measured = 21

[[record]]
compound = "CSc1nccc(-c2c(-c3ccc(F)cc3)ncn2CCCN2CCOCC2)n1.Cl [SB-217146]"
target_or_test_system = "FGR"
readout_kind = "%Inh"
value_measured = 0

[[record]]
compound = "Cc1cccc2c(-c3ccncc3)c(-c3ccc(F)cc3)nn12.Cl [GW461487]"
target_or_test_system = "FGR"
readout_kind = "%Inh"
value_measured = 2

[[record]]
compound = "CCn1c(-c2nonc2N)nc2cncc(Br)c21 [SB-738004]"
target_or_test_system = "FGR"
readout_kind = "%Inh"
value_measured = 17

[[record]]
compound = "CCn1c(-c2nonc2N)nc2cncc(CNC3CCNCC3)c21.Cl [SB-747651]"
target_or_test_system = "FGR"
readout_kind = "%Inh"
value_measured = 1

[[record]]
compound = "Cn1ccc2ncnc(Oc3ccc(NC(=O)Nc4cccc(C(F)(F)F)c4)c(F)c3)c21"
target_or_test_system = "FGR"
readout_kind = "%Inh"
value_measured = 3

[[record]]
compound = "NC(=O)Nc1sc(-c2ccc(F)cc2)cc1C(N)=O [GW789449]"
target_or_test_system = "FGR"
readout_kind = "%Inh"
value_measured = 45

[[record]]
compound = "CCOC(=O)N1CCC(n2cnc(-c3ccc(F)cc3)c2-c2ccnc(N)n2)CC1 [SB-219952]"
target_or_test_system = "FGR"
readout_kind = "%Inh"
value_measured = 0

[[record]]
compound = "OCCn1cc(-c2cnc3nnn(Cc4ccc5ncccc5c4)c3n2)cn1"
target_or_test_system = "FGR"
readout_kind = "%Inh"
value_measured = 5

[[record]]
compound = "COc1cc2ncn(-c3cc(OCC4CCCCC4)c(C(N)=O)s3)c2cc1OC [GSK204559]"
target_or_test_system = "FGR"
readout_kind = "%Inh"
value_measured = 29

[[record]]
compound = "N#Cc1cccc(C(=O)NC2CCN(c3ccnc(Nc4ccc(F)cc4)n3)C2)c1 (stereo not drawn) [GSK1379708]"
target_or_test_system = "FGR"
readout_kind = "%Inh"
value_measured = 18

[[record]]
compound = "CN(c1ccc2c(c1)nc(NCc1ccc(F)cc1)n2C)c1ccnc(Nc2ccc(CS(C)(=O)=O)cc2)n1.Cl [GW813244]"
target_or_test_system = "FGR"
readout_kind = "%Inh"
value_measured = 28

[[record]]
compound = "CN(c1cccc(CNc2nc(Nc3ccc4c(c3)CC(=O)N4)ncc2C(F)(F)F)c1)S(C)(=O)=O"
target_or_test_system = "FGR"
readout_kind = "%Inh"
value_measured = 25

[[record]]
compound = "Cl.Cl.NC[C@H](CC1CCCCC1)NC(=O)c1ccc(-c2ccnc3[nH]ccc23)s1 [GSK1581428]"
target_or_test_system = "FGR"
readout_kind = "%Inh"
value_measured = 25

